- System: H460 (human lung cancer)
- run description: MTT cytotoxicity assay, H460
- Assay type: cell-based
- details: Homo sapiens, NCI-H460; H460 cells, 50% cell growth inhibition after 72 h of drug exposure, MTT
Mark MET only when IC50 stays strictly below 2 µM. Values equal to the cut-off are NOT MET.

Is IC50 strictly under 2 µM for the entry C[C@@H]1CC[C@H]2[C@@H](C)C(OCCOc3ccc(/C=C/S(=O)(=O)Nc4ccccc4Cl)cc3)O[C@@H]3O[C@@]4(C)CC[C@@H]1[C@]32OO4 (some centres unmarked) ?
NOT MET

Is IC50 strictly under 2 µM for the entry C[C@@H]1CC[C@H]2[C@@H](C)C(OCCNC(=O)c3ccc(COc4ccc(/C=C/S(=O)(=O)Nc5cccc(Cl)c5)cc4)cc3)O[C@@H]3O[C@@]4(C)CC[C@@H]1[C@]32OO4 (some centres unmarked) ?
NOT MET

Is IC50 strictly under 2 µM for the entry C[C@@H]1CC[C@H]2[C@@H](C)C(OCCOc3ccc(/C=C/S(=O)(=O)Nc4ccc(Cl)cc4)cc3)O[C@@H]3O[C@@]4(C)CC[C@@H]1[C@]32OO4 (some centres unmarked) ?
MET

Is IC50 strictly under 2 µM for the entry C[C@@H]1CC[C@H]2[C@@H](C)C(OCCNC(=O)c3ccc(COc4ccc(/C=C/S(=O)(=O)Nc5ccc(Cl)cc5)cc4)cc3)O[C@@H]3O[C@@]4(C)CC[C@@H]1[C@]32OO4 (some centres unmarked) ?
MET

Is IC50 strictly under 2 µM for the entry C[C@H]1[C@@H](O)O[C@@H]2O[C@@]3(C)CC[C@H]4[C@H](C)CC[C@@H]1[C@@]24OO3 [DHA, dihydroartemisinin] ?
NOT MET
